# System: Escherichia coli
# Test: minimum inhibitory concentration (MIC)
# Test Conditions: isolate (source animal id): 135
Experimental Readout: minimum inhibitory concentration (µg/mL)
Could you give me the number in µg/mL? Just the number is fine.

Incoming: # get_value(readout='minimum inhibitory concentration', item= CS(=O)(=O)c1ccc([C@@H](O)[C@@H](CF)NC(=O)C(Cl)Cl)cc1 [Florfenicol] )
Outgoing: 8

Incoming: Check CCCN1C[C@H](C)[C@@H](O)[C@](C)(O)[C@@H](CC)OC(=O)[C@H](C)[C@@H](O[C@H]2C[C@@](C)(OC)[C@@H](O)[C@H](C)O2)[C@H](C)[C@@H](O[C@@H]2O[C@H](C)C[C@H](N(C)C)[C@H]2O)[C@](C)(O)C[C@H]1C [Gamithromycin] too.
Outgoing: 8
